read-out: Actin alpha 1 (ACTA1), ACTA1 (gene 58); test: BSK_MyoF_ACTA1: BioMAP Diversity Plus: MyoF Assay for Actin alpha 1 (ACTA1) Biomarker Activity (AID 2284244); details: primary human lung fibroblasts
Active and inactive are the calls of the source. Rule for the calls: active = hit-call score of the fitted dose curve at least 0.9, where 1 is the maximum; inactive = score below 0.9.
Please answer using one outcome listed in active, inactive

Answered cases to consult:
| Molecule | Category |
| --- | --- |
| CC(C)(C)c1cc(CCC(=O)NCCCCCCNC(=O)CCc2cc(C(C)(C)C)c(O)c(C(C)(C)C)c2)cc(C(C)(C)C)c1O | inactive |
| O=C(O)C(F)(F)C(F)(F)C(F)(F)C(=O)O | inactive |
| CC(C)CCCC(C)CCO (stereo unspecified) | active |

Hi, do you know how NCC(F)(F)C(F)(F)C(F)(F)C(F)(F)C(F)(F)C(F)(F)F came out in this test? inactive

Hi, do you know how CCN(CC)c1ccc(C=O)cc1 came out in this test? inactive

Hi, do you know how O=C=NCc1cccc(CN=C=O)c1 came out in this test? inactive

###

read-out: Decorin, DCN (gene 1634); assay: BSK_MyoF_Decorin: BioMAP Diversity Plus: MyoF Assay for Decorin Biomarker Activity (AID 2284265); details: primary human lung fibroblasts
Calls of active or inactive are those of the source. Rule for the calls: active = hit-call score of the fitted dose curve at least 0.9, where 1 is the maximum; inactive = score below 0.9.
Property name: AC50

Consider the following illustrative entries.
| Smiles structure | AC50 |
| --- | --- |
| C=CC(=O)OCCC(F)(F)C(F)(F)C(F)(F)C(F)(F)F | inactive |
| OCC(F)(F)C(F)(F)C(F)(F)C(F)(F)C(F)(F)C(F)(F)C(F)(F)C(F)(F)CO | inactive |
| OCC(F)(F)C(F)(F)C(F)(F)C(F)(F)C(F)(F)C(F)(F)CO | inactive |
| CCOC(C=C(C)CCC=C(C)C)OCC | 0.016 µM (active) |
| O=C(O)CCC(F)(F)C(F)(F)C(F)(F)F | inactive |
| O=C(F)C1(F)C(F)(F)C(F)(F)C(F)(F)C(F)(F)C1(F)F | inactive |
| OCC(F)(F)C(F)(F)C(F)(F)CO | inactive |
| NC(=O)C(F)(F)C(F)(F)C(F)(F)C(F)(F)C(F)(F)C(F)(F)C(F)(F)F | inactive |

// sample NS(=O)(=O)C(F)(F)C(F)(F)C(F)(F)C(F)(F)C(F)(F)C(F)(F)F , its AC50 was inactive

// sample O=C(c1ccccc1)c1ccc(O)cc1O , its AC50 was inactive

// sample Cc1cc(O)c(C(C)(C)C)cc1C(C)(C)C , its AC50 was 5.16 µM (active)

###

read-out: Vascular endothelial growth factor receptor 2 (Homo sapiens); experiment: BSK_4H_VEGFRII: BioMAP Diversity Plus: 4H Assay for Vascular endothelial growth factor receptor 2 (VEGFR2) Biomarker Activity (AID 2283031); settings: primary human endothelial cells (HUVEC); actives raise or lower the signal
Activity calls are given as the source filed them. The calls were made as follows: active = hit-call score of the fitted dose curve at least 0.9, where 1 is the maximum; inactive = score below 0.9.
Please answer using one outcome listed in active, inactive

Answered cases to consult:
| Molecule | Category |
| --- | --- |
| NC(O)(C(F)(F)F)C(F)(F)F | inactive |
| Brc1nc2ccccc2s1 | inactive |
| O=S(=O)(Cl)C(F)(F)C(F)(F)C(F)(F)C(F)(F)C(F)(F)C(F)(F)C(F)(F)C(F)(F)F | inactive |

Hi, do you know how NC(=O)C(F)(F)C(F)(F)C(F)(F)C(F)(F)C(F)(F)C(F)(F)C(F)(F)F came out in this test? inactive

Hi, do you know how Cc1cc(C)c(O)c(C(C)(C)C)c1 came out in this test? inactive

Hi, do you know how CC(C)(C)c1cc(CCC(=O)NCCCCCCNC(=O)CCc2cc(C(C)(C)C)c(O)c(C(C)(C)C)c2)cc(C(C)(C)C)c1O came out in this test? inactive

Hi, do you know how C[Si](Cl)(Cl)CCC(F)(F)C(F)(F)C(F)(F)C(F)(F)C(F)(F)C(F)(F)F came out in this test? inactive

Hi, do you know how Cc1ccc(O)c(-n2nc3ccccc3n2)c1 came out in this test? inactive

Hi, do you know how O=C1c2c(O)ccc(Nc3ccc(CCO)cc3)c2C(=O)c2c([N+](=O)[O-])ccc(O)c21 came out in this test? active

Hi, do you know how OCCCCC(F)(F)C(F)(F)C(F)(F)C(F)(F)F came out in this test? inactive

Hi, do you know how O=C1C=CC(=O)N1c1ccc(Cc2ccc(N3C(=O)C=CC3=O)cc2)cc1 came out in this test? active

Hi, do you know how OCC(O)CC(F)(F)C(F)(F)C(F)(F)C(F)(F)F (stereo not drawn) came out in this test? inactive

Hi, do you know how CC(C)CCCC(C)CCO (stereo not drawn) came out in this test? inactive

###

read-out: Tissue plasminogen activator (tPA), PLAT (gene 5327); assay: BSK_BE3C_tPA: BioMAP Diversity Plus: BE3C Assay for Tissue plasminogen activator (tPA) Biomarker Activity (AID 2283041); conditions: primary human bronchial epithelial cells; actives raise or lower the signal;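 note: tPA level quantified by ELISA one day after compound addition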
Active and inactive are the calls of the source. Rule for the calls: active = hit-call score of the fitted dose curve at least 0.9, where 1 is the maximum; inactive = score below 0.9.
Please answer using one outcome listed in yes = active, no = inactive

Answered cases to consult:
| Molecule | Category |
| --- | --- |
| C=C(C)C(=O)OCC(F)(F)C(F)(F)C(F)(F)C(F)F | no |
| O=C1c2c(O)ccc(Nc3ccc(CCO)cc3)c2C(=O)c2c([N+](=O)[O-])ccc(O)c21 | no |
| O=C(O)C(F)(F)C(F)(F)C(F)(F)C(F)(F)C(F)(F)C(F)(F)C(F)F | no |

Hi, do you know how CCOC(C=C(C)CCC=C(C)C)OCC came out in this test? no

Hi, do you know how OC(O)C(F)(F)C(F)(F)F came out in this test? no

Hi, do you know how NC(=O)C(F)(F)C(F)(F)C(F)(F)C(F)(F)C(N)=O came out in this test? no

###

read-out: Vascular cell adhesion molecule 1 (VCAM1), VCAM1 (gene 7412); experiment: BSK_LPS_VCAM1: BioMAP Diversity Plus: LPS Assay for Vascular cell adhesion molecule 1 (VCAM1) Biomarker Activity (AID 2283086); settings: primary human HUVEC with PBMC; actives raise or lower the signal
Active and inactive are the calls of the source. Rule for the calls: active = hit-call score of the fitted dose curve at least 0.9, where 1 is the maximum; inactive = score below 0.9.
Property name: outcome

Consider the following illustrative entries.
| Smiles structure | outcome |
| --- | --- |
| C[C@]12CC[C@H]3C(=CCc4cc(O)ccc43)[C@@H]1CCC2=O | inactive |
| NCC(F)(F)C(F)(F)C(F)(F)C(F)(F)C(F)(F)C(F)(F)F | inactive |
| NCC(F)(F)C(F)(F)C(F)(F)C(F)(F)C(F)(F)C(F)(F)C(F)(F)C(F)(F)F | inactive |
| O=C(O)C(F)(F)C(F)(F)C(F)(F)OC(F)(C(F)(F)F)C(F)(F)F | inactive |

// sample O=C=Nc1cccc2c(N=C=O)cccc12 , its outcome was inactive

// sample O=C=NCc1cccc(CN=C=O)c1 , its outcome was inactive

// sample CNS(=O)(=O)C(F)(F)C(F)(F)C(F)(F)C(F)(F)C(F)(F)C(F)(F)C(F)(F)C(F)(F)F , its outcome was inactive

###

system: Sodium/Iodide Symporter (NIS), SLC5A5 (gene 6528); experiment: CPHEA_Stoker_NIS_Inhibition_RAIU: CPHEA's Radioactive Iodide Uptake (RAIU) Assay for Sodium/Iodide Symporter (NIS) Inhibition, Stoker and Laws Labs (AID 2283841)
Records with an inconclusive call do not appear. Calls of active or inactive are those of the source. How the source made its calls: active means hit-call score of the fitted dose curve at least 0.9, where 1 is the maximum; inconclusive means response in the unintended direction; inactive means score below 0.9.
Please answer using one outcome listed in 1 for active, -1 for inactive

Answered cases to consult:
| Molecule | Category |
| --- | --- |
| CCN=C1C=CC(=C(c2ccc(N(CC)CC)cc2)c2ccc(N(CC)CC)cc2)c2ccccc21 | 1 |
| C=CC(=O)OCCC(F)(F)C(F)(F)C(F)(F)C(F)(F)F | -1 |
| OCC(F)(F)C(F)(F)C(F)(F)C(F)(F)C(F)(F)C(F)(F)CO | -1 |
| CCc1cc(Cc2cc(CC)c(N)c(CC)c2)cc(CC)c1N | 1 |
| CCCCCCCCn1sc(Cl)c(Cl)c1=O | 1 |

Hi, do you know how FC(F)(F)C(F)(F)C(F)(F)C(F)(F)C(F)(F)C(F)(F)C(F)(F)CCI came out in this test? 1

Hi, do you know how NS(=O)(=O)C(F)(F)C(F)(F)C(F)(F)C(F)(F)C(F)(F)C(F)(F)F came out in this test? -1

Hi, do you know how CCCCCCCCCCCCCC[P+](CCCC)(CCCC)CCCC came out in this test? 1

Hi, do you know how O=C1C=CC(=O)N1c1ccccc1 came out in this test? 1

Hi, do you know how O=S(=O)(Cl)C(F)(F)C(F)(F)C(F)(F)C(F)(F)C(F)(F)C(F)(F)C(F)(F)C(F)(F)F came out in this test? 1

###

Target: Nuclear receptor subfamily 1 group I member 2 (Homo sapiens) (UniProt O75469)
Sequence (O75469 whole entry, looked up): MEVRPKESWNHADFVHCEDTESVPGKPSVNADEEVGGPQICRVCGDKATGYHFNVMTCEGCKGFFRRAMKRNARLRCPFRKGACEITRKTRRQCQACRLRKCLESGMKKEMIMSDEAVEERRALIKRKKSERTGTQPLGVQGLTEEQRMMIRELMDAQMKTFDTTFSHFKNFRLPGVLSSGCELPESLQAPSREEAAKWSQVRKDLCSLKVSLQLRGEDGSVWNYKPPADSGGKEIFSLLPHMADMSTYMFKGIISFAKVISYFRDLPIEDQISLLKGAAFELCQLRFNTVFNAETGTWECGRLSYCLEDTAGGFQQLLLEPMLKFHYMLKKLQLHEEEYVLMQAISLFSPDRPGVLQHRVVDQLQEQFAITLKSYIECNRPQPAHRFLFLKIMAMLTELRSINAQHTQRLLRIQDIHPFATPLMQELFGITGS
Test: ATG_PXR_TRANS: Attagene TRANS-FACTORIAL HepG2 Assay for human Pregnane X Receptor (PXR) (AID 2283008)
Description: ATG_TRANS is a cell-based, multiplexed-readout assay that uses HepG2, a human liver cell line, with measurements taken at 24 hours after chemical dosing in a 24-well plate.ATG_PXR_TRANS is one of 30 assay component(s) measured or calculated from the ATG_TRANS assay. […] This assay endpoint, ATG_PXR_TRANS, was analyzed in the positive analysis fitting direction relative to DMSO as the negative control and baseline of activity. […]
Records with an inconclusive call do not appear. Activity calls are given as the source filed them. The calls were made as follows: active = hit-call score of the fitted dose curve at least 0.9, where 1 is the maximum; inconclusive = response in the unintended direction; inactive = score below 0.9.
Please answer using one outcome listed in t for active, f for inactive

| Molecule | Category |
| --- | --- |
| O=C(O)C(F)(F)C(F)(F)C(F)(F)C(F)(F)C(F)(F)C(F)(F)C(F)F | f |
| O=C(Cl)C(F)(F)C(F)(F)C(F)(F)C(F)(F)C(F)(F)C(F)(F)F | f |

Hi, do you know how NCC(F)(F)C(F)(F)C(F)(F)C(F)(F)C(F)(F)C(F)(F)C(F)(F)C(F)(F)F came out in this test? f

Hi, do you know how CCOC(=O)CC(=O)C(F)(F)C(F)(F)F came out in this test? f

Hi, do you know how Brc1ccccn1 came out in this test? f

Hi, do you know how CC(C)CC=C(C=O)c1ccccc1 came out in this test? t

Hi, do you know how NS(=O)(=O)C(F)(F)C(F)(F)C(F)(F)C(F)(F)C(F)(F)C(F)(F)F came out in this test? f

Hi, do you know how NC(O)(C(F)(F)F)C(F)(F)F came out in this test? f
